Target: T1, 14-mer V3 peptide KRIHIGPGRAFYTT (MN sequence) (HIV-1 strain MN, V3 crown (peptide))
T1 chain: KRIHIGPGRAFYTT
Assay: ITC
What pKd was measured for each of the following?
Scale explanation: pKd corresponds to minus log10 of a concentration expressed in moles per litre.

(Q) Entry Fv 447–52D wild type (other, human) VH: EVQLVESGGGLVKPGGSLRLTCVASGFTFSDVWLNWVRQAPGKGLEWVGRIKSRTDGGTTDYAASVKGRFTISRDDSKNTLYLQMNSLKTEDTAVYSCTTDGFIMIRGVSEDYYYYYMDVWGKGTTVTVSS VL: QSVLTQPPSVSAAPGQKVTISCSGSSSNIGNNYVLWYQQFPGTAPKLLIYGNNKRPSGIPDRFSGSKSGTSATLGITGLQTGDEADYFCATWDSGLSADWVFGGGTKLTVL has what pKd?
(A) 7.64

(Q) Entry Fv 447–52D Tyr^H100JThr (other, human) VH: EVQLVESGGGLVKPGGSLRLTCVASGFTFSDVWLNWVRQAPGKGLEWVGRIKSRTDGGTTDYAASVKGRFTISRDDSKNTLYLQMNSLKTEDTAVYSCTTDGFIMIRGVSEDYYYTYMDVWGKGTTVTVSS VL: QSVLTQPPSVSAAPGQKVTISCSGSSSNIGNNYVLWYQQFPGTAPKLLIYGNNKRPSGIPDRFSGSKSGTSATLGITGLQTGDEADYFCATWDSGLSADWVFGGGTKLTVL has what pKd?
(A) 5.89

(Q) Entry Fv 447–52D Trp^H33Ala (other, human) VH: EVQLVESGGGLVKPGGSLRLTCVASGFTFSDVALNWVRQAPGKGLEWVGRIKSRTDGGTTDYAASVKGRFTISRDDSKNTLYLQMNSLKTEDTAVYSCTTDGFIMIRGVSEDYYYYYMDVWGKGTTVTVSS VL: QSVLTQPPSVSAAPGQKVTISCSGSSSNIGNNYVLWYQQFPGTAPKLLIYGNNKRPSGIPDRFSGSKSGTSATLGITGLQTGDEADYFCATWDSGLSADWVFGGGTKLTVL has what pKd?
(A) 5.41

(Q) Entry Fv 447–52D Asp^H95Asn (other, human) VH: EVQLVESGGGLVKPGGSLRLTCVASGFTFSDVWLNWVRQAPGKGLEWVGRIKSRTDGGTTDYAASVKGRFTISRDDSKNTLYLQMNSLKTEDTAVYSCTTNGFIMIRGVSEDYYYYYMDVWGKGTTVTVSS VL: QSVLTQPPSVSAAPGQKVTISCSGSSSNIGNNYVLWYQQFPGTAPKLLIYGNNKRPSGIPDRFSGSKSGTSATLGITGLQTGDEADYFCATWDSGLSADWVFGGGTKLTVL has what pKd?
(A) 5.41
